// provenance: patent US20260151519A1

For each entry below, report its pKd value.
Molecular target: T1, Human Nectin-4 (human, UniProt Q96NY8 32-349, limits assumed)
T1 construct: Protein immobilised on the SPR chip; also called target protein
T1 sequence: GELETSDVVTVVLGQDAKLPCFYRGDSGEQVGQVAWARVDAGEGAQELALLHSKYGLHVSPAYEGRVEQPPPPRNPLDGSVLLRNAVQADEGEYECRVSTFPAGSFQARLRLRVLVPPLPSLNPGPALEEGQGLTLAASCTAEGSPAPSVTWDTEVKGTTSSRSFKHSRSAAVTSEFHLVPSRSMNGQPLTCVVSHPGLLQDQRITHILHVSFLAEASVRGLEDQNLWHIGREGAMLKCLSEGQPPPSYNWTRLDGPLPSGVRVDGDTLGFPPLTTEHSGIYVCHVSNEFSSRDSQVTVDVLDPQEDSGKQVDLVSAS
Assay: Table 2B (DELFIA or SPR)
Bridges are numbered along the chain shown (N, C = ends). Primed or numbered codes have the meaning given here. Where no end group is shown, it is not given here. [ ]: non-standard residue; d: D form. The star is where a group is joined. Biotin = O=C1N[C@H]2[C@H](CS[C@H]2CCCCC(=O)*)N1; hydroxy‑norleucine = hydroxy-norleucine residue; PEG4″ = 4(ethylene glycol)
# pKd: negative log10 of molar concentration; output just the value

Input line: For the binder shown here, {Biotin-PEG4″}-CEYDEQFFTALSSLRGGDICYYIQEQFANVPGICIEEILDNLGCS (designed binder, disulfide 1-34, 20-44) [C139] , give the reported pKd.
Output line: 7.60

Input line: For the binder shown here, {Biotin-PEG4″}-CEYDEEFFTALARLRGGDICYYIQA[hydroxy‑norleucine]FQYLPGLCIEEILDNLGCS-OH (designed binder, disulfide 1-34, 20-44) [C164] , give the reported pKd.
Output line: 8.30

Input line: For the binder shown here, Ac-CEYDEEFFTALARLRGGDICYYIQAKFQYLPGLCIEEILDNLGCS (designed binder, disulfide 1-34, 20-44) [C124] , give the reported pKd.
Output line: 8.96

Input line: For the binder shown here, {Biotin-PEG4″}-CEYDEEFFTALAQLRGGDICYYIQAKFQYLPGLCIEEILDNLGCS-OH (designed binder, disulfide 1-34, 20-44) [C162] , give the reported pKd.
Output line: 8.06

Input line: For the binder shown here, Ac-CEYDEEFFAGLKRLRGGDICYYIKKKFPKVPDLCIEEILDKLGC-OH (designed binder, disulfide 1-34, 20-44) [C19] , give the reported pKd.
Output line: 7.97

Input line: For the binder shown here, {Biotin-PEG4″}-CEYDEEFFTALARLRGGDICSYIQAKFQYLPKLCIEEILDNLGCS (designed binder, disulfide 1-34, 20-44) [C168] , give the reported pKd.
Output line: 9.05

Input line: For the binder shown here, {Biotin-PEG4″}-CEYDEEFFTALKRLRGGDICEYIQAAFQYLPGLCIEEILDNLGCS-OH (designed binder, disulfide 1-34, 20-44) [C198] , give the reported pKd.
Output line: 8.64

Input line: For the binder shown here, {Biotin-PEG4″}-CEYDEEFFTALARLRGGDICYYIQAKFQYLPGECIEEILQNLGCS-OH (designed binder, disulfide 1-34, 20-44) [C142] , give the reported pKd.
Output line: 9.09

Input line: For the binder shown here, Ac-CEYDEEFFTLLKRLRGGDICYYIKKKFKKVPKLCIEEILDKLGC (designed binder, disulfide 1-34, 20-44) [C56] , give the reported pKd.
Output line: 8.41

Input line: For the binder shown here, Ac-CEYDEQFFTALARLRGGDICYYIQEQFATVPGLCIEEILDQLGC-NH2 (designed binder, disulfide 1-34, 20-44) [C128] , give the reported pKd.
Output line: 8.00
